Assay explanation: ATG_DR4_LXR_CIS: Attagene CIS-FACTORIAL HepG2 Assay for human Liver X Receptor (LXR), DR4 submotif (AID 2282929)
Assay conditions: HepG2 Attagene DR4 cis-reporter, mRNA transcription; actives raise or lower the signal
The source made the active and inactive calls. Rule for the calls: active = hit-call score of the fitted dose curve at least 0.9, where 1 is the maximum; inactive = score below 0.9.
Labels: y = active, n = inactive

> print(dat)
                                    molecule  classification
 1  CCCCC(CC)C(=O)OCCOCCOCCOC(=O)C(CC)CCCC (configuration not stated)               y
 2  COc1cc2c(c(OC)c1OC)-c1ccc(OC)c(=O)cc1[C@@H](NC(C)=O)CC2               n
 3  CCOc1ccc2[nH]cc(C(=O)NCc3ccccc3)c(=O)c2n1               n
 4           NCC(F)(F)C(F)(F)C(F)(F)C(F)(F)F               n
 5  c1ccc(C(O[C@@H]2CCCN(CCc3ccc4c(c3)OCO4)C2)c2ccccc2)cc1               y
 6                                   NC(N)=O               n
 7                              COS(C)(=O)=O               n
 8                                  CNC(C)=O               n
 9  O=C(O)c1ccc2c(c1)nc(C(=O)NC1CCN(C3CC3)CC1)n2Cc1cc(-c2ccc(Cl)s2)on1               n
10  C[C@@H](Oc1ccc(CNC(=O)c2cccnc2Oc2ccc3c(c2)OCO3)c(F)c1)C(=O)O               n
11                             CCCCCCCCN(C)C               n
12             O=C(O)[C@H](O)[C@@H](O)C(=O)O               n
13                                   OCCNCCO               n
14  Cc1nccn1-c1ccc(Sc2cccc(C3(C(N)=O)CCOCC3)c2)cc1               n
15  O=C(NO)C1(NS(=O)(=O)c2ccc(Oc3ccc(F)cc3)cc2)CCOCC1               n
16  O=C(O)c1cccc(C[C@@H]2COc3ccc(OCc4nc5cc(F)ccc5s4)cc3[C@@H]2O)c1               y
17  CCCCN1C(=O)[C@@H]([C@H](O)C2CCCCC2)NC(=O)C12CCN(Cc1ccc(Oc3ccc(C(=O)O)cc3)cc1)CC2               y
18                                CCCCCCCCCC               n
19  FC(F)C(F)(F)COCC1CO1 (configuration not stated)               n
20                             OCC(CO)(CO)CO               n
21           NC(=O)NN=Cc1ccc([N+](=O)[O-])o1               n
22                                OCc1ccccc1               n
23         C[Si](C)(C)C(F)(F)C(F)(F)C(F)(F)F               n
24                            c1ccc2ncccc2c1               n
25                                OC(CCl)CCl               n
26  O=S(=O)(O)CCC(F)(F)C(F)(F)C(F)(F)C(F)(F)C(F)(F)C(F)(F)F               n
27                                OCCOCCOCCO               n
